Taken from patent US6979686B1.

Please go through the items and note down their pIC50.
# Assayed system: human p38 kinase alpha (Homo sapiens, UniProt Q16539)
# Construct: GST (N, cleaved yes); made in house; host or cells: E. coli DH10B
# Sequence (Q16539 whole entry): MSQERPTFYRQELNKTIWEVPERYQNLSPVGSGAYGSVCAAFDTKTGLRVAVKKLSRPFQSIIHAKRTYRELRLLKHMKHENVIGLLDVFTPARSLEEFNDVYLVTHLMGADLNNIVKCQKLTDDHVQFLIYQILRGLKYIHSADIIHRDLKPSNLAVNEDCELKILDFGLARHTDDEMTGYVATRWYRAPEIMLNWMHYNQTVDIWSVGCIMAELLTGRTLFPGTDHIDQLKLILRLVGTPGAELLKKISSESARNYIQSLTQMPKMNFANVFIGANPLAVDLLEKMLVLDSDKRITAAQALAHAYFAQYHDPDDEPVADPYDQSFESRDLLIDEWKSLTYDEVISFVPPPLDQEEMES
# Experiment description: p38 kinase in vitro assay, phosphorylation of biotinylated PHAS-I with 32P-ATP
# Assay type: biochemical
# Study conditions: in vitro P38-alpha kinase inhibition; read-out: P38 alpha kinase IC50
Answers are plain numbers, as −log10 of the molar value.

# annotated cases, reported pIC50 shown
> print(dat)
                                   molecule  measured.property  quantitative.readout
1  CNC(=O)CCC(NC(=O)Cc1cccc(OC)c1)c1[nH]nc(-c2ccc(F)cc2)c1-c1ccncc1 (stereo not drawn) [Example B-0872]              pIC50                  5.50
2  CNC(=O)CCC(NS(C)(=O)=O)c1[nH]nc(-c2ccc(F)cc2)c1-c1ccncc1 (stereo not drawn) [Example B-0878]              pIC50                  6.19
3  CC(NC(=O)C(C)(C)C)c1[nH]nc(-c2ccc(F)cc2)c1-c1ccncc1 (stereo not drawn) [Example B-0601]              pIC50                  7.05
4  Cc1cc(C)c(C(=O)NCCc2[nH]nc(-c3ccc(F)cc3)c2-c2ccncc2)c(C)c1 [Example B-1133]              pIC50                  6.42
5  CC(C)OC(=O)NC(C)c1[nH]nc(-c2ccc(F)cc2)c1-c1ccncc1 (stereo not drawn) [Example B-0606]              pIC50                  6.77
6  O=C(NC(Cc1ccccc1)c1[nH]nc(-c2ccc(F)cc2)c1-c1ccncc1)c1ccccc1 (stereo not drawn) [Example B-0819]              pIC50                  5.97

Parameters: items (list). Returns: pIC50 for each item.
1. CC(NS(=O)(=O)C=Cc1ccccc1)c1[nH]nc(-c2ccc(F)cc2)c1-c1ccncc1 (stereo not drawn) [Example B-0565]
2. O=S(=O)(NCCc1[nH]nc(-c2ccc(F)cc2)c1-c1ccncc1)c1cccc(C(F)(F)F)c1 [Example B-1099]
3. CC(NS(=O)(=O)c1cn(C)cn1)c1[nH]nc(-c2ccc(F)cc2)c1-c1ccncc1 (stereo not drawn) [Example B-0663]
4. CC(NC(=O)c1c(F)cccc1F)c1[nH]nc(-c2ccc(F)cc2)c1-c1ccncc1 (stereo not drawn) [Example B-0700]
5. O=C(NC(Cc1ccccc1)c1[nH]nc(-c2ccc(F)cc2)c1-c1ccncc1)C1CC1 (stereo not drawn) [Example B-0805]
6. Cc1ccc(S(=O)(=O)NC(Cc2ccccc2)c2[nH]nc(-c3ccc(F)cc3)c2-c2ccncc2)cc1 (stereo not drawn) [Example B-0721]
7. CC(NS(=O)(=O)CC12CCC(CC1=O)C2(C)C)c1[nH]nc(-c2ccc(F)cc2)c1-c1ccncc1 (stereo not drawn) [Example B-0611]
8. O=S(=O)(Cc1ccccc1)NC(Cc1ccccc1)c1[nH]nc(-c2ccc(F)cc2)c1-c1ccncc1 (stereo not drawn) [Example B-0711]

stdout:
6.64
6.59
6.06
6.62
6.15
5.42
6.19
5.70
